These entries and their values trace back to patent US8680159B2.

target: human B1R receptor (CHO K1 cells stably transfected with the human B1R gene) (Homo sapiens); construct: expressed in transfected cells; host or cells: CHO K1 cells (Chinese hamster ovary), stably transfected; test: Functional study on the bradykinin receptor 1 (B1R), Ca2+ fluorescence (Fluo-4) FLIPR/Novostar assay, hB1R cells; type: cell-based; conditions: CHO-K1, read-out: % inhibition (human B1R) at 10 μM
reportedMetric: inhibition at 10 µM (%)
Numbers only, in %.

Cc1cc(N2CCC(N(C)C(=O)c3ccc4c(c3)[C@H](NC(=O)C3CCOCC3)CC4)CC2)nc(C)n1 :: 74

Provide inhibition at 10 µM values for the following items, in order.
1. CN(C(=O)c1ccc2c(c1)[C@H](NC(=O)c1ccccc1C(F)(F)F)CC2)C1CCN(c2ccncc2)CC1
2. COc1ccc(N2CCC(N(C)C(=O)c3ccc4c(c3)[C@H](NC(=O)c3ccccc3Cl)CC4)CC2)cc1
3. CN(C(=O)c1ccc2c(c1)[C@H](N1Cc3cccc(Cl)c3C1=O)CC2)C1CCN(c2ccncc2)CC1

100
23
100

----------
Provide the reported inhibition at 10 µM of each item.
molecular target: B1R receptor of the rat (CHO K1 cells stably transfected with the B1R gene of the rat) (Rattus norvegicus, UniProt P97583); construct: expressed in transfected cells; host or cells: CHO K1 cells (Chinese hamster ovary), stably transfected; test: Functional study on the bradykinin receptor 1 (B1R), Ca2+ fluorescence (Fluo-4) FLIPR/Novostar assay, rB1R cells; assay type: cell-based; settings: CHO-K1, 10 μM, read-out: % Inhibition (r-B1R) at 10 μM
Sequence (P97583 whole entry): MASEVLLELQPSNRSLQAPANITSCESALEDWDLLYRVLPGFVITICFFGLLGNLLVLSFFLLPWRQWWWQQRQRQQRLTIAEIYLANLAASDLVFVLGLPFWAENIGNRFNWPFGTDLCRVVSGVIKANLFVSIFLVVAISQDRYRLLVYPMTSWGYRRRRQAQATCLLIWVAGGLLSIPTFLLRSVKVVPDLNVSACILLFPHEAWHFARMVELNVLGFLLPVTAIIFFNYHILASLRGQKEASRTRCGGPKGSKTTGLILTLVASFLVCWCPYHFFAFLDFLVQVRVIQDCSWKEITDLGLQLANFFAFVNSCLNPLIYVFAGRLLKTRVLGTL
Numbers only, in %.

Cc1cc(N2CCC(N(C)C(=O)c3ccc4c(c3)C(NC(=O)Nc3ccc(Cl)cc3Cl)CC4)CC2)cc(C)n1 (stereo not shown) :: 101
CN(C(=O)c1ccc2c(c1)C(NC(=O)c1cc(C(F)(F)F)ccc1Cl)CCO2)C1CCN(c2ccncc2)CC1 (stereo not shown) :: 112
CCCC(=O)N(C)C1CCc2ccc(C(=O)N(C)C3CCN(c4cc(C)nc(C)c4)CC3)cc21 (stereo not shown) :: 84

Provide inhibition at 10 µM values for the following items, in order.
1. CN(C(=O)c1ccc2c(c1)C(NC(=O)c1cc(C(F)(F)F)ccc1Cl)CC2)C1CCN(c2ccncc2)CC1 (stereo not shown)
2. CN(C(=O)c1ccc2c(c1)C(NC(=O)CCC1CCCC1)CC2(C)C)C1CCN(c2ccncc2)CC1 (stereo not shown)
3. Cc1cc(N2CCC(N(C)C(=O)c3ccc4c(c3)C(N(C)C(=O)Nc3ccc(Cl)cc3C(F)(F)F)CC4)CC2)cc(C)n1 (stereo not shown)
4. CC(C)CC(=O)NC1CCc2ccc(C(=O)N(C)C3CCN(c4ccc5cnccc5c4)CC3)cc21 (stereo not shown)

[111, 102, 90, 110]

----------
Target: B1R receptor of the rat (CHO K1 cells stably transfected with the B1R gene of the rat) (Rattus norvegicus)
Construct: expressed in transfected cells; host or cells: CHO K1 cells (Chinese hamster ovary), stably transfected
Test: Functional study on the bradykinin receptor 1 (B1R), Ca2+ fluorescence (Fluo-4) FLIPR/Novostar assay, rB1R cells
Type: cell-based
Details: CHO-K1, 10 μM, read-out: % inhibition (rat B1R) at 10 μM
Excerpt: The agonistic or antagonistic action of substances can be quantified on the bradykinin receptor 1 (B1R) of the species human and rat using ectopically expressing cell lines (CHO K1 cells) and with the aid of a Ca^2+-sensitive dye (Fluo-4) using a fluorescent imaging plate reader (FLIPR). […] The agonistic or antagonistic action of substances can be determined on the bradykinin receptor 1 (B1R) of the species human and rat using the following assay. […]
reportedMetric: inhibition at 10 µM
Answer format reminder: number followed by unit.

CN(C(=O)c1ccc2c(c1)[C@H](NC(=O)c1ccccc1Cl)CC2)C1CCN(c2ccncc2)CC1(C)C (stereo partly drawn) :: 103%
Cc1nsc(N2CCC(N(C)C(=O)c3ccc4c(c3)[C@H](NC(=O)c3ccccc3Cl)CC4)CC2)n1 :: 104%

Provide inhibition at 10 µM values for the following items, in order.
1. Cc1cc(N2CCC(N(C)C(=O)c3ccc4c(c3)[C@H](NC(=O)c3ccccc3Cl)CC4)CC2)nc(C(C)C)n1
2. CN(C(=O)c1ccc2c(c1)[C@H](NC(=O)c1ccccc1Cl)CC2)C1CCC(c2ccncc2)CC1 (stereo partly drawn)
3. Cc1cc(N2CCC(N(C)C(=O)c3ccc4c(c3)[C@H](NC(=O)CC(C)C)CC4)CC2)ccn1
4. Cc1cc(N2CCC(N(C)C(=O)c3cc(F)c4c(c3)[C@H](NC(=O)c3ccccc3Cl)CCO4)CC2)nc(C)n1

["97%", "77%", "103%", "109%"]

Provide inhibition at 10 µM values for the following items, in order.
1. CN(C(=O)c1ccc2c(c1)[C@H](NC(=O)c1ccccc1Cl)CC2)C1CCN(c2ccc(F)cc2)CC1
2. COc1ncccc1C(=O)N[C@@H]1CCc2ccc(C(=O)N(C)C3CCN(c4ccncc4)CC3)cc21
3. Cc1cc(N2CCC(N(C)C(=O)c3ccc4c(c3)[C@H](NC(=O)C3CCOCC3)CC4)CC2)ccn1

["85%", "98%", "104%"]

----------
Biological target: human B1R receptor (CHO K1 cells stably transfected with the human B1R gene) (Homo sapiens, UniProt P46663)
Construct: expressed in transfected cells; host or cells: CHO K1 cells (Chinese hamster ovary), stably transfected
Sequence (P46663 1-353): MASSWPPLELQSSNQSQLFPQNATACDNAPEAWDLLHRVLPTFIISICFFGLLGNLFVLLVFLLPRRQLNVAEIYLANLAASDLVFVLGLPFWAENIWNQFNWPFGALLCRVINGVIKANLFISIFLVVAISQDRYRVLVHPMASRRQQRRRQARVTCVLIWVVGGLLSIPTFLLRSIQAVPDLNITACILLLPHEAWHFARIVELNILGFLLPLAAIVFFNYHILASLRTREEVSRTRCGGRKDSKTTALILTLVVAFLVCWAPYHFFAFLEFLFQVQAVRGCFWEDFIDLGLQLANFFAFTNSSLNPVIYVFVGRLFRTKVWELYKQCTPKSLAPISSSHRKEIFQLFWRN
Assay: Functional study on the bradykinin receptor 1 (B1R), Ca2+ fluorescence (Fluo-4) FLIPR/Novostar assay, hB1R cells
Assay type: cell-based
Settings: CHO-K1, read-out: % inhibition (human B1R) at 10 μM
Provide the reported inhibition at 10 µM of each item.
Answers are plain numbers, in %.

Please review the entries below; each comes with its answer.
CN(C(=O)c1ccc2c(c1)[C@H](NC(=O)c1ccccc1Cl)CC2)C1CCN(c2ccnc(N)n2)CC1 [Example H-244] :: 100
Cc1nsc(N2CCC(N(C)C(=O)c3ccc4c(c3)[C@H](NC(=O)c3ccccc3Cl)CC4)CC2)n1 [Example H-125] :: 70
Cc1cc(N2CCC(N(C)C(=O)c3ccc4c(c3)[C@H](NC(=O)C3CCCC3)CC4)CC2)nc(C)n1 [Example H-226] :: 99
Cc1cc(N2CCC(N(C)C(=O)c3ccc4c(c3)[C@H](NC(=O)c3ccccc3F)CC4)CC2)nc(C)n1 [Example H-128] :: 99
CN(C(=O)c1ccc2c(c1)CC[C@H]2N1Cc2cccc(Cl)c2C1=O)C1CCN(CCc2ccncc2)CC1 [Example H-43] :: 22
COc1cc(N2CCC(N(C)C(=O)c3ccc4c(c3)[C@H](NC(=O)c3ccccc3Cl)CC4)CC2)ccn1 [Example H-112] :: 99
CCN(C(=O)c1cccnc1C(F)(F)F)[C@@H]1CCc2ccc(C(=O)N(C)C3CCN(c4cc(C)nc(C)n4)CC3)cc21 [Example H-174] :: 100
Cc1cc(N2CCC(N(C)C(=O)c3ccc4c(c3)[C@H](NC(=O)c3ccccc3C(F)(F)F)CC4)CC2)nc(C)n1 [Example H-132] :: 99

Provide inhibition at 10 µM values for the following items, in order.
1. CC(C)CC(=O)N(C(C)C)[C@@H]1CCc2ccc(C(=O)N(C)C3CCN(c4ccnc(N(C)C)n4)CC3)cc21 [Example H-120]
2. Cc1cc(N2CCC(N(C)C(=O)c3ccc4c(c3)[C@H](NC(=O)c3ccccc3Cl)CC4)CC2)nc(C)n1 [Example H-59]
3. CN(C(=O)c1ccc2c(c1)[C@H](N(C)C(=O)c1ccccc1Cl)CC2)C1CCN(c2ccncn2)CC1 [Example H-148]
4. CN1CCN([C@@H]2CCC[C@H](N(C)C(=O)c3ccc4c(c3)CC[C@H]4N3Cc4cccc(Cl)c4C3=O)C2)CC1 [Example H-111]
5. CN(C(=O)c1cc(F)c2c(c1)[C@H](N1Cc3cccc(Cl)c3C1=O)CCO2)C1CCN(c2ccncc2)CC1 [Example H-87]
6. COc1c(C)cnc(CN2CCC(N(C)C(=O)c3ccc4c(c3)[C@H](NC(=O)c3ccccc3Cl)CC4)CC2)c1C [Example H-131]

[98, 99, 89, 65, 39, 55]
